Entries and their measured pEC50 follow.
Experimental System: F508delCFTR (Homo sapiens, UniProt P13569, DEL508-508)
Construct: expressed in transfected cells; host or cells: CFBE41o- human lung-derived epithelial cells (CFBE4lo-F508delCFTR-HRP), doxycycline-inducible
Sequence (P13569 with tags, fused parts or gaps DEL508-508): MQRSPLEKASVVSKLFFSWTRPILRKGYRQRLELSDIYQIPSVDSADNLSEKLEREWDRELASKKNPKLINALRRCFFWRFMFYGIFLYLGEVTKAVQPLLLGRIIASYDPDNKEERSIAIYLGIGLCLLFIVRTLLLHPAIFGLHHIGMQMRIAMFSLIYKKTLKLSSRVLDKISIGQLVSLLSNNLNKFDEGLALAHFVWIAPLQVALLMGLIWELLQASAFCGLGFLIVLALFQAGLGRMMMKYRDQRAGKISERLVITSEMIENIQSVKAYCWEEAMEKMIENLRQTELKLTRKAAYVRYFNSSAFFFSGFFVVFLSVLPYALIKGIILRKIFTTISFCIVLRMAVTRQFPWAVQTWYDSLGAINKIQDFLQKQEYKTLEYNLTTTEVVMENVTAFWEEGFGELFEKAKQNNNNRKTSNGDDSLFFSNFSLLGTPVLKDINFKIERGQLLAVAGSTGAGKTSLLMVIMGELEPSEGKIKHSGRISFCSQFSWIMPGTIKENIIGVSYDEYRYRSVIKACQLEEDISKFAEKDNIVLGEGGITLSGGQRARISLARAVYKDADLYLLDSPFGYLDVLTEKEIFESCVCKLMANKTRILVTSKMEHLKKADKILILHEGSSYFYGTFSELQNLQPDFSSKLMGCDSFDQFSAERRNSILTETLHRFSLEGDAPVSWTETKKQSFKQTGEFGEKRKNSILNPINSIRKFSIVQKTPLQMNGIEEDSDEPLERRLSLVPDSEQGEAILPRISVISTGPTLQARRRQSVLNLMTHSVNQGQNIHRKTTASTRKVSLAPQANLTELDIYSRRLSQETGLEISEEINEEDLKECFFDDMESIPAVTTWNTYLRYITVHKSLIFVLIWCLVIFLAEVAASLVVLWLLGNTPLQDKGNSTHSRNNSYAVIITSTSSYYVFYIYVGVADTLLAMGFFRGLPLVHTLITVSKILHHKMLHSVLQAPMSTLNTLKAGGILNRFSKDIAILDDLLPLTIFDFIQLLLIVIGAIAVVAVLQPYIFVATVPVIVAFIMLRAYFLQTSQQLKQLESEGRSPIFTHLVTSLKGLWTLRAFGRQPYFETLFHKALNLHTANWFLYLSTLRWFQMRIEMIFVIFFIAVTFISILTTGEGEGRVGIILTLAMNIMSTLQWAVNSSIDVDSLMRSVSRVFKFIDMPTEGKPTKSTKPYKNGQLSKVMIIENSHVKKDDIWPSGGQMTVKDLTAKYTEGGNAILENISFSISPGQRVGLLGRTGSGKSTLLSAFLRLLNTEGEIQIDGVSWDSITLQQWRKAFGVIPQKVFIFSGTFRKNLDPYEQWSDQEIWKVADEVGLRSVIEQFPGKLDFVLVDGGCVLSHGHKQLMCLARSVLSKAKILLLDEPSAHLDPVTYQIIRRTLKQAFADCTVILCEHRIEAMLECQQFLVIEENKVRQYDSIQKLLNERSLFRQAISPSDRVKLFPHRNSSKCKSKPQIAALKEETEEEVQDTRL
Test Name: Cell Surface Expression-Horse Radish Peroxidase (CSE-HRP) Assay
Assay type: cell-based
Reported Conditions: with co-corrector (2 μM of 3-[(2R,4R)-4-({[1-(2,2-difluoro-1,3-benzodioxol-5-yl)cyclopropyl]carbonyl}amino)-7-methoxy-3,4-dihydro-2H-chromen-2-yl]benzoic acid); read-out: EC50 (with co-corrector)
pEC50: −log10 of the molar value.

These recorded examples may help you get a feel for the data.
- Molecule: "CC(C)(C)c1ccc(O)c(CN[C@H]2[C@H](C(C)(C)C)[C@@H](C(=O)O)N(C(=O)C3CCCCC3)[C@H]2c2ccccc2)c1"
  pEC50: "< 5.00"
- Molecule: "Cc1cc(C(F)(F)F)nc(N[C@@H]2[C@@H](C(C)(C)C)[C@H](C(=O)O)N(C(=O)OC(C)C)[C@@H]2c2ccccc2)n1 (racemic)"
  pEC50: "5.00 to 6.00"
- Molecule: "COc1nc(C(C)(C)C)ccc1CN[C@H]1[C@H](C(C)(C)C)[C@@H](C(=O)O)N(C(=O)[C@@H]2CCC[C@H](OC)C2)[C@H]1c1ccccc1 (relative stereo)"
  pEC50: "5.00 to 6.00"
- Molecule: "COc1nc2ccccc2cc1CN[C@H]1[C@H](C(C)(C)C)[C@@H](C(=O)O)N(C(=O)OC(C)C)[C@H]1c1ccccc1C"
  pEC50: "> 6.00"
- Molecule: "COc1ccc(C(C)(C)C)cc1CN[C@H]1[C@H](C(C)(C)C)[C@@H](C(=O)O)N(C(=O)C2CCOC2C(C)C)[C@H]1c1ccccc1 (stereo partly shown)"
  pEC50: "5.00 to 6.00"

Prompt line: Consider the molecule shown here: COc1ncc(C2CCC2)cc1CN[C@H]1[C@H](C(C)(C)C)[C@@H](C(=O)O)N(C(=O)C2C3CCCC32)[C@H]1c1cccnc1OC (stereo partly shown) What is its recorded pEC50?
Response line: 5.00 to 6.00

Prompt line: What value of pEC50 has been reported for the following molecule? COc1ccc(C2(C(F)(F)F)CC2)cc1CN[C@H]1[C@H](C(C)(C)C)[C@@H](C(=O)O)N(C(=O)OC(C)C)[C@H]1c1cccnc1N(C)C
Response line: 5.00 to 6.00

Prompt line: I have this molecule here, COc1ccc(C(C)(C)C)cc1CN[C@H]1[C@H](C(C)(C)C)[C@@H](C(=O)O)N(C(=O)C(OC)C2CC2)[C@H]1c1ccccc1 (single isomer, unassigned) , and I need its recorded pEC50.
Response line: 5.00 to 6.00

Prompt line: Entry under review: COc1ccc(C(C)(C)C)cc1CN[C@H]1[C@H](C(C)(C)C)[C@@H](C(=O)O)N(C(=O)C2CCCN(C)C2=O)[C@H]1c1ccccc1 (single isomer, unassigned) . Reported pEC50?
Response line: 5.00 to 6.00

Prompt line: State the recorded pEC50 for this entry: COc1nc(C(C)(C)C)ccc1CN[C@H]1[C@H](C(C)(C)C)[C@@H](C(=O)O)N(C(=O)OC(C)C)[C@H]1c1cccnc1OC(C)C
Response line: > 6.00

----------
Reported Emax values for a set of molecules
Experimental System: F508delCFTR (Homo sapiens, UniProt P13569, DEL508-508)
Construct: expressed in transfected cells; host or cells: CFBE41o- human lung-derived epithelial cells (CFBE4lo-F508delCFTR-HRP), doxycycline-inducible
Test Name: Cell Surface Expression-Horse Radish Peroxidase (CSE-HRP) Assay;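 as to Maximum % activity (without co-corrector): percent of the 2 µM on-plate positive control corrector response above DMSO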
Format: cell-based
Reported Conditions: test compound without co-corrector; maximum at any tested concentration, normalized to on-plate positive control; read-out: Maximum % activity (without co-corrector)

- Molecule: "Cc1ccccc1CN[C@@H]1[C@@H](C(C)(C)C)[C@H](C(=O)O)N(C(=O)CC2CCCC2)[C@@H]1c1ccccc1 (racemic)"
  Emax: "< 100%"

Prompt line: Can you look up the measured Emax of COc1ccc(C(C)(C)C)cc1CN[C@H]1[C@H](C(C)(C)C)[C@@H](C(=O)O)N(C(=O)C(C)Oc2cccc(Cl)c2)[C@H]1c1ccccc1 (stereo partly drawn) for me?
Response line: > 200%

Prompt line: May I ask what Emax has been recorded for COc1nc(C(C)(C)C)ccc1CN[C@H]1[C@H](C(C)(C)C)[C@@H](C(=O)O)N(C(=O)C2CCCCC2)[C@H]1c1ccccc1OC(F)F ?
Response line: 100 to 200%
